- system.name: human melanocortin 4 receptor (human) (UniProt P32245)
- Sequence (P32245 whole entry): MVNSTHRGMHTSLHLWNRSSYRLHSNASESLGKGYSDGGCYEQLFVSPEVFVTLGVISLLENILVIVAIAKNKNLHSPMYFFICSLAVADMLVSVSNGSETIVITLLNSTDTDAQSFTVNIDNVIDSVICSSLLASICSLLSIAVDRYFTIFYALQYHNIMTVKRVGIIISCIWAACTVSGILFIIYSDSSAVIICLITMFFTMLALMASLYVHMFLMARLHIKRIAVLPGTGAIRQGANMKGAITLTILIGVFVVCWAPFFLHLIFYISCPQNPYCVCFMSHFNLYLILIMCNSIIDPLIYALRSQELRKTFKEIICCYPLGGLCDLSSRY
- measurement.notes: competition with 125-NDP-α-MSH, BHK human MC4R membranes
pKi: −log10 of the molar value. Positions of bridges follow the written chain, without caps; N, C: chain ends. Non-standard residues stand in square brackets, D forms with d. Hyp = O=C(O)[C@@H]1C[C@@H](O)CN1; Aib = CC(C)(N)C(=O)O
The label depends only on pKi: 1 (yes) if it is at least 8, 0 (no) if it is smaller.

[ask] pKi >= 8 for CXHFXWCXHFXW (Aib 2, 8; D-Phe 4, 10; AGP 5, 11; disulphide Cys1-Cys7; head-to-tail amide Cys1-Trp12) [Chem. 43] ?
[reply] 1 (yes)

[ask] pKi >= 8 for cyclo(C[dV]H[dF]RWC[dV]H[dF]RW) (disulfide 1-7; SMILES CC(C)[C@H]1NC(=O)[C@@H]2CSSC[C@H](NC(=O)[C@H](Cc3c[nH]c4ccccc34)NC(=O)[C@H](CCCNC(=N)N)NC(=O)[C@@H](Cc3ccccc3)NC(=O)[C@H](Cc3c[nH]cn3)NC1=O)C(=O)N[C@H](C(C)C)C(=O)N[C@@H](Cc1c[nH]cn1)C(=O)N[C@H](Cc1ccccc1)C(=O)N[C@@H](CCCNC(=N)N)C(=O)N[C@@H](Cc1c[nH]c3ccccc13)C(=O)N2) [Chem. 34] ?
[reply] 1 (yes)

[ask] pKi >= 8 for CXHFXWCXHFXW (Aib 2, 8; D-Phe 4, 10; Cit 5, 11; disulphide Cys1-Cys7; head-to-tail amide Cys1-Trp12) [Chem. 41] ?
[reply] 1 (yes)

[ask] pKi >= 8 for cyclo(C[dP]H[dF]RWC[dP]H[dF]RW) (disulfide 1-7; SMILES N=C(N)NCCC[C@@H]1NC(=O)[C@@H](Cc2ccccc2)NC(=O)[C@H](Cc2c[nH]cn2)NC(=O)[C@H]2CCCN2C(=O)[C@@H]2CSSC[C@H](NC(=O)[C@H](Cc3c[nH]c4ccccc34)NC1=O)C(=O)N1CCC[C@@H]1C(=O)N[C@@H](Cc1c[nH]cn1)C(=O)N[C@H](Cc1ccccc1)C(=O)N[C@@H](CCCNC(=N)N)C(=O)N[C@@H](Cc1c[nH]c3ccccc13)C(=O)N2) [Chem. 33] ?
[reply] 0 (no)

[ask] pKi >= 8 for cyclo(C[Aib][Hyp][dF]RWC[Aib][Hyp][dF]RW) (disulfide 1-7; SMILES CC1(C)NC(=O)[C@@H]2CSSC[C@H](NC(=O)[C@H](Cc3c[nH]c4ccccc34)NC(=O)[C@H](CCCNC(=N)N)NC(=O)[C@@H](Cc3ccccc3)NC(=O)[C@@H]3C[C@@H](O)CN3C1=O)C(=O)NC(C)(C)C(=O)N1C[C@H](O)C[C@H]1C(=O)N[C@H](Cc1ccccc1)C(=O)N[C@@H](CCCNC(=N)N)C(=O)N[C@@H](Cc1c[nH]c3ccccc13)C(=O)N2) [Chem. 38] ?
[reply] 1 (yes)
